Values were extracted from patent US9193728B2.

assayed-system: human recombinant serotonin (5-Hydroxytryptamine) 5-HT2C receptor (Homo sapiens, UniProt P28335)
Construct: expressed in transfected cells; host or cells: CHO-K1
Sequence (P28335 33-458): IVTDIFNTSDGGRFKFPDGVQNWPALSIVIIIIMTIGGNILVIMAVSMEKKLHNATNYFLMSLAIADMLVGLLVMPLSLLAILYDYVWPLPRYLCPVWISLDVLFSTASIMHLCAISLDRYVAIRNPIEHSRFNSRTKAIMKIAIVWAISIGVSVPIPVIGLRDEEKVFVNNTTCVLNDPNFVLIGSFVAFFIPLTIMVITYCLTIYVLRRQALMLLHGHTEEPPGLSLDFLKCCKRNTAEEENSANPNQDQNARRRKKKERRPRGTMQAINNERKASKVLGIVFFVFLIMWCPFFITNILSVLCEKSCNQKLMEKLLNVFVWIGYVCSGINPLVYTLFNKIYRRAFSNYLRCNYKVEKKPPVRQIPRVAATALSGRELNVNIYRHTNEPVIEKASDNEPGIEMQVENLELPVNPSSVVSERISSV
assay-protocol: Serotonin 5-HT2C radioligand binding ([3H]Mesulergine)
run-parameters: compound at 0.1 μM; read-out: Serotonin (0.1 μM) 5-HT2C, percentage inhibition of ligand binding
Description: To evaluate in radioligand binding assays the activity of compounds of the invention, human recombinant serotonin (5-Hydroxytryptamine) 5-HT2C receptor expressed in Chinese hamster ovary (CHO)-K1 cells (Wolf, W. et al, J. Neurochem. 69:1449, 1997) in a modified Tris-HCl buffer (50 mM Tris-HCl, pH 7.4, 0.1% Ascorbic Acid, 10 μM Pargyline) was used. […] Receptor proteins were filtered and washed, the filters were then counted to determine [^3H]Mesulergine specifically bound. […]
Respond with satisfied for inhibition at 0.1 µM values of 50% and above, not satisfied for values below.

Solved cases below.
compound: Cc1cc2c3c(c1)c1c(n3C(c3ccccc3)C2)CCN(C)C1 (stereo not drawn)
assigned-class: satisfied
--
compound: CN1CCc2c(c3cccc4c3n2CC(c2ccncc2)C4)C1 (stereo not drawn)
assigned-class: not satisfied
--
compound: Cc1cc2c3c(c1)c1c(n3CC(C)(c3ccc(C)nc3)OC(C)C2)CCN(C)C1 (stereo not drawn)
assigned-class: not satisfied
--
compound: Cc1cc2c3c(c1)c1c(n3CC(c3ccc(F)cc3)C2)CCN(C)C1 (stereo not drawn)
assigned-class: satisfied

Enquiry: Determine whether measured inhibition at 0.1 µM meets or exceeds 50% for CN1CCc2c(c3cccc4c3n2CC(=O)N4)C1
Return: not satisfied

Enquiry: Try this compound next: CN1CCc2c(c3cccc4c3n2CCC4)C1
Return: not satisfied

Enquiry: Try this compound next: Cc1cc2c3c(c1)c1c(n3CC(C)(c3ccncc3)OC(C)C2)CCN(C)C1 (stereo not drawn)
Return: not satisfied

Enquiry: Try this compound next: Cc1cc2c3c(c1)c1c(n3CC2)CCN(CCCC(=O)c2ccc(F)cc2)C1
Return: satisfied

Enquiry: Try this compound next: Cc1cc2c3c(c1)c1c(n3CC(c3ccc(F)cc3)CC2)CCN(C)C1 (stereo not drawn)
Return: satisfied

----------
assayed-system: human recombinant serotonin (5-Hydroxytryptamine) 5-HT6 receptor (Homo sapiens, UniProt P50406)
Construct: expressed in transfected cells; host or cells: HeLa
Sequence (P50406 whole entry): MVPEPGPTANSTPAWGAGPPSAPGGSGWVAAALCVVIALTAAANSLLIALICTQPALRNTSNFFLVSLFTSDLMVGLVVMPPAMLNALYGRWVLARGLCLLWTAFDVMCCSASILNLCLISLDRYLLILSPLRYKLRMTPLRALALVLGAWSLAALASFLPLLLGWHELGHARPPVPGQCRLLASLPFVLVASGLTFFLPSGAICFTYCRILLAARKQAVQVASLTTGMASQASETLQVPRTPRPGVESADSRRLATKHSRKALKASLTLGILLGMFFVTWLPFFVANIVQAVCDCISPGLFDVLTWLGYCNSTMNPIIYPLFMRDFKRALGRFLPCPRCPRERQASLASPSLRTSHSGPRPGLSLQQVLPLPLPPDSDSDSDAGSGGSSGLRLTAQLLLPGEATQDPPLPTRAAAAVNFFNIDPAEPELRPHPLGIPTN
assay-protocol: Serotonin 5-HT6 radioligand binding ([3H]LSD)
run-parameters: compound at 0.1 μM; read-out: Serotonin (0.1 μM) 5-HT6, percentage inhibition of ligand binding
value-type: inhibition at 0.1 µM

Enquiry: What does the record list as inhibition at 0.1 µM for Cc1cc2c3c(c1)c1c(n3C[C@](C)(c3ccncc3)O[C@H]2C)CCN(C)C1 [Compound 163] ?
Return: 8%

Enquiry: Try this compound next: O=C(CCCN1CCc2c(c3cccc4c3n2CCC4)C1)c1ccc(F)cc1 [Compound 14]
Return: 21%

Enquiry: Try this compound next: Cc1cc2c3c(c1)c1c(n3CC(c3ccc(F)cc3)C2)CCN(C)C1 (centres unmarked) [Compound 3]
Return: 80%

Enquiry: Try this compound next: Cc1cc2c3c(c1)c1c(n3CC(c3ccc(F)cc3)CC2)CCN(C)C1 (centres unmarked) [Compound 157]
Return: 91%

Enquiry: Try this compound next: Cc1ccc(C2Cn3c4c(c5cccc2c53)CN(C)CC4)cn1 (centres unmarked) [Compound 210]
Return: 1%

Enquiry: Try this compound next: CN1CCc2c(c3cccc4c3n2CCO4)C1 [Compound 9]
Return: 12%

Enquiry: Try this compound next: CN1CCc2c(c3cccc4c3n2CC(c2ccncc2)C4)C1 (centres unmarked) [Compound 7]
Return: -2%

----------
assayed-system: human recombinant histamine H1 receptor (Homo sapiens, UniProt P35367)
Construct: expressed in transfected cells; host or cells: CHO-K1
Sequence (P35367 whole entry): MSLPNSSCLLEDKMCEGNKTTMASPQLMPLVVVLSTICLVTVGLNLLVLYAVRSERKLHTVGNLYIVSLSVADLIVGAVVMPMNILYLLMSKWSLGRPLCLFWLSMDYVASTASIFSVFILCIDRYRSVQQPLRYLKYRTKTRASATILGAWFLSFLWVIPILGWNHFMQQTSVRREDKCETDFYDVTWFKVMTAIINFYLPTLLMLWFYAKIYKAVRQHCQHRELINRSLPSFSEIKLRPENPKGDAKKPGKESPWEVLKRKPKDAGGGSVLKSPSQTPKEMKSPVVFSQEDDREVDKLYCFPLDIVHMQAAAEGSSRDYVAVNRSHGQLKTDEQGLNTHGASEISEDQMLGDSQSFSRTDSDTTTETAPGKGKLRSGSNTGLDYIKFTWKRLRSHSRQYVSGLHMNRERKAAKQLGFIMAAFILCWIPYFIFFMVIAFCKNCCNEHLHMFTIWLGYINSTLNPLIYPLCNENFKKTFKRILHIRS
assay-protocol: Histamine H1 radioligand binding ([3H]Pyrilamine)
run-parameters: compound at 1 μM; 1.2 nM [3H]Pyrilamine; read-out: Histamine Binding (1 μM) H1, percentage inhibition
Labels assigned by inhibition at 1 µM range: bin 0 = under 50%, bin 1 = from 50% up to 80%, bin 2 = 80% and over

compound: Cc1cc2c3c(c1)c1c(n3CC(c3ccc(F)cc3)CC2)CCN(C)C1 (centres unmarked)
assigned-class: bin 2

compound: CN1CCc2c(c3cccc4c3n2CC(c2ccncc2)S4)C1 (centres unmarked)
assigned-class: bin 2

Enquiry: Which band does Cc1cc2c3c(c1)c1c(n3CC(c3ccc(F)cc3)=C2)CCN(C)C1 fall in?
Return: bin 0

Enquiry: Try this compound next: CN1CCc2c(c3cccc4c3n2CC(=O)N4)C1
Return: bin 0

Enquiry: Try this compound next: CN1CCc2c(c3cccc4c3n2CC(c2ccncc2)C4)C1 (centres unmarked)
Return: bin 2

Enquiry: Try this compound next: CN1CCc2c(c3cccc4c3n2CCS4)C1
Return: bin 0

Enquiry: Try this compound next: Cc1cc2c3c(c1)c1c(n3CC2)CCN(CCCC(=O)c2ccc(F)cc2)C1
Return: bin 1

Enquiry: Try this compound next: Cc1cc2c3c(c1)c1c(n3CC(c3ccc(F)cc3)C2)CCN(C)C1 (centres unmarked)
Return: bin 2

Enquiry: Try this compound next: Cc1cc2c3c(c1)c1c(n3CC(c3ccc(F)cc3)=CC2)CCN(C)C1
Return: bin 2

Enquiry: Try this compound next: Cc1cc2c3c(c1)c1c(n3CC2c2ccc(F)cc2)CCN(C)C1 (centres unmarked)
Return: bin 1

----------
assayed-system: human recombinant serotonin (5-Hydroxytryptamine) 5-HT5A receptor (Homo sapiens, UniProt P47898)
Construct: expressed in transfected cells; host or cells: CHO-K1
Sequence (P47898 whole entry): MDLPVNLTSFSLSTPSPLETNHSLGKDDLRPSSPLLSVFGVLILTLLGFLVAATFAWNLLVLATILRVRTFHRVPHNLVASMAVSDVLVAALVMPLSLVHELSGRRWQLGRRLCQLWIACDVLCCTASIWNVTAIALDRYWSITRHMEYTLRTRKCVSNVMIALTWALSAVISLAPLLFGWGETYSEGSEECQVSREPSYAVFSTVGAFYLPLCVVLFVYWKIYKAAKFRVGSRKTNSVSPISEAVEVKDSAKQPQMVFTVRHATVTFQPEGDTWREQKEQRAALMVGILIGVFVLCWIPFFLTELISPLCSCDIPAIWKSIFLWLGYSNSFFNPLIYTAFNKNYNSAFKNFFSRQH
assay-protocol: Serotonin 5-HT5A radioligand binding ([3H]LSD)
run-parameters: compound at 0.1 μM; read-out: Serotonin (0.1 μM) 5-HT5A, percentage inhibition of ligand binding
value-type: inhibition at 0.1 µM (%)
Numbers only; they are read as %.

compound: Cc1cc2c3c(c1)c1c(n3CC(C)(c3ccncc3)OC(C)C2)CCN(C)C1 (stereo not shown)
value-type: inhibition at 0.1 µM
test-result: 16

Enquiry: What does the record list as inhibition at 0.1 µM for Cc1cc2c3c(c1)c1c(n3C[C@@](C)(c3ccncc3)O[C@H]2C)CCN(C)C1 ?
Return: 16

Enquiry: Try this compound next: Cc1cc2c3c(c1)c1c(n3C[C@](C)(c3ccncc3)O[C@H]2C)CCN(C)C1
Return: 10

Enquiry: Try this compound next: Cc1cc2c3c(c1)c1c(n3CC(C)(c3ccc(C)nc3)OC(C)C2)CCN(C)C1 (stereo not shown)
Return: 2

----------
assayed-system: human recombinant serotonin (5-Hydroxytryptamine) 5-HT2C receptor (Homo sapiens, UniProt P28335)
Construct: expressed in transfected cells; host or cells: CHO-K1
assay-protocol: Serotonin 5-HT2C radioligand binding ([3H]Mesulergine)
run-parameters: compound at 0.1 μM; read-out: Serotonin (0.1 μM) 5-HT2C, percentage inhibition of ligand binding
value-type: inhibition at 0.1 µM (%)
Numbers only; they are read as %.

molecule: CN1CCc2c(c3cccc4c3n2CC(=O)N4Cc2ccncc2)C1 [Compound 159]
units-text: %
test-result: 35

Enquiry: What does the record list as inhibition at 0.1 µM for Cc1cc2c3c(c1)c1c(n3C[C@@](C)(c3ccncc3)O[C@H]2C)CCN(C)C1 [Compound 162] ?
Return: 6

Enquiry: Try this molecule next: CN1CCc2c(c3cccc4c3n2CCS4)C1 [Compound 11]
Return: 57

----------
assayed-system: human recombinant serotonin (5-Hydroxytryptamine) 5-HT7 receptor (Homo sapiens)
Construct: expressed in transfected cells; host or cells: CHO
assay-protocol: Serotonin 5-HT7 radioligand binding ([3H]LSD)
run-parameters: compound at 0.1 μM; read-out: Serotonin (0.1 μM) 5-HT7, percentage inhibition of ligand binding
Respond with YES for inhibition at 0.1 µM values of 9% and above, NO for values below.

item-smiles: CN1CCc2c(c3cccc4c3n2CCO4)C1
assigned-class: NO

item-smiles: Cc1cc2c3c(c1)c1c(n3CC(c3ccc(F)cc3)=CC2)CCN(C)C1
assigned-class: YES

item-smiles: O=C(CCCN1CCc2c(c3cccc4c3n2CCC4)C1)c1ccc(F)cc1
assigned-class: YES

Enquiry: Determine whether measured inhibition at 0.1 µM meets or exceeds 9% for Cc1cc2c3c(c1)c1c(n3C[C@@](C)(c3ccncc3)O[C@H]2C)CCN(C)C1
Return: NO

----------
assayed-system: human recombinant serotonin (5-Hydroxytryptamine) 5-HT7 receptor (Homo sapiens, UniProt P34969)
Construct: expressed in transfected cells; host or cells: CHO
Sequence (P34969 whole entry): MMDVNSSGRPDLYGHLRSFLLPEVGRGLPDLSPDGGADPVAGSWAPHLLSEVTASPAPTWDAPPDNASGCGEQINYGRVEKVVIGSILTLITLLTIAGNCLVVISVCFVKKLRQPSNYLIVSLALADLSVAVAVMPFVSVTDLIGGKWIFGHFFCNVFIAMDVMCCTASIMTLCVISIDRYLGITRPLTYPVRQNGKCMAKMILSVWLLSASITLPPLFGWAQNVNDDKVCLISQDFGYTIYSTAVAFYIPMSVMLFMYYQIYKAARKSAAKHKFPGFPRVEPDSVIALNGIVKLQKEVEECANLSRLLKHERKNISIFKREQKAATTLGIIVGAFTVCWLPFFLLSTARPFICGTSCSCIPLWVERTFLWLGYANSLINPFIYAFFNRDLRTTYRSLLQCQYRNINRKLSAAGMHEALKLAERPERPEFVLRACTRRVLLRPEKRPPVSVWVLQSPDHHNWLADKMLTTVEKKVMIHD
assay-protocol: Serotonin 5-HT7 radioligand binding ([3H]LSD)
run-parameters: compound at 0.1 μM; read-out: Serotonin (0.1 μM) 5-HT7, percentage inhibition of ligand binding
Respond with t for inhibition at 0.1 µM values of 10% and above, f for values below.

compound: Cc1cc2c3c(c1)c1c(n3CC(C)(c3ccncc3)OC(C)C2)CCN(C)C1 (centres unmarked)
assigned-class: f
--
compound: Cc1cc2c3c(c1)c1c(n3CC2)CCN(CCCC(=O)c2ccc(F)cc2)C1
assigned-class: t
--
compound: CN1CCc2c(c3cccc4c3n2CCC4)C1
assigned-class: t
--
compound: CN1CCc2c(c3cccc4c3n2CC(=O)N4Cc2ccncc2)C1
assigned-class: t
--
compound: Cc1cc2c3c(c1)c1c(n3C(c3ccccc3)C2)CCN(C)C1 (centres unmarked)
assigned-class: t

Enquiry: Determine whether measured inhibition at 0.1 µM meets or exceeds 10% for Cc1cc2c3c(c1)c1c(n3CC(C)(c3ccc(C)nc3)OC(C)C2)CCN(C)C1 (centres unmarked)
Return: t

Enquiry: Try this compound next: CN1CCc2c(c3cccc4c3n2CCS4)C1
Return: f
